These data points were gathered from ChEMBL document CHEMBL4130613.

Exercise: state measured MIC for each of the molecules provided.
System: Escherichia coli
Protocol description: Antibacterial activity against extended-spectrum beta-lactamase-negative Escherichia coli 12-14 after 18 hrs by agar dilution method
Assay type: functional
Stated conditions: 12-14, 18 h

Enquiry: What measured MIC goes with CNC(=N)NCCC/C=C/CCC[C@H](C)C[C@H](C)[C@@H](O)[C@@H](C)/C=C/C=C/[C@@H](O)[C@@H](C)[C@H](O)C[C@@H](O)C[C@H](O)C[C@@H](O)C[C@H](O)[C@@H](O)C(O)C[C@@H](O)[C@@H](C)CC[C@H](O)[C@@H](C)[C@@H](O)C[C@@H](O)[C@@H](C)/C=C/[C@@H](O)[C@@H](C)C(=O)O (stereo partly drawn) ?
Return: > 64 µg/mL

Enquiry: What measured MIC goes with CNC(=N)NCCC/C=C/CCC[C@H](C)C[C@H](C)[C@H]1OC(=O)[C@H](C)[C@H](O)/C=C/[C@H](C)[C@H](O)C[C@H](O)[C@H](C)[C@@H](O)CC[C@H](C)[C@H](O)C[C@]2(O)O[C@H](C[C@@H](OC(=O)CC(=O)O)C[C@H](O)C[C@@H](O)[C@H](C)[C@H](O)/C=C/C=C/[C@@H]1C)C[C@H](OC(=O)CC(=O)O)[C@H]2O ?
Return: > 64 µg/mL

Enquiry: What measured MIC goes with CNC(=N)NCCC/C=C/CCC[C@H](C)C[C@H](C)[C@H]1OC(=O)[C@H](C)[C@H](O)/C=C/[C@H](C)[C@H](O)C[C@H](O)[C@H](C)[C@@H](O)CC[C@H](C)[C@H](O)C[C@]2(O)O[C@H](C[C@@H](O)C[C@H](OC(=O)CC(=O)O)C[C@@H](O)[C@H](C)[C@H](O)/C=C/C=C/[C@@H]1C)C[C@H](OC(=O)CC(=O)O)[C@H]2O ?
Return: > 64 µg/mL

====

Exercise: state measured MIC for each of the molecules provided.
Tested on: Escherichia coli
Protocol description: Antibacterial activity against extended-spectrum beta-lactamase-positive Escherichia coli 12-15 after 18 hrs by agar dilution method
Type: functional
Stated conditions: 12-15, 18 h

Enquiry: What measured MIC goes with CNC(=N)NCCC/C=C/CCC[C@H](C)C[C@H](C)[C@H]1OC(=O)[C@H](C)[C@H](O)/C=C/[C@H](C)[C@H](O)C[C@H](O)[C@H](C)[C@@H](O)CC[C@H](C)[C@H](O)C[C@]2(O)O[C@H](C[C@@H](OC(=O)CC(=O)O)C[C@H](O)C[C@@H](O)[C@H](C)[C@H](O)/C=C/C=C/[C@@H]1C)C[C@H](O)[C@H]2O ?
Return: > 64 µg/mL

Enquiry: What measured MIC goes with CNC(=N)NCCC/C=C/CCC[C@H](C)C[C@H](C)[C@H]1OC(=O)[C@H](C)[C@H](O)/C=C/[C@H](C)[C@H](O)C[C@H](O)[C@H](C)[C@@H](O)CC[C@H](C)[C@H](O)C[C@]2(O)O[C@H](C[C@@H](O)C[C@H](OC(=O)CC(=O)O)C[C@@H](O)[C@H](C)[C@H](O)/C=C/C=C/[C@@H]1C)C[C@H](OC(=O)CC(=O)O)[C@H]2O ?
Return: > 64 µg/mL

====

Test system: Citrobacter freundii
Protocol description: Antibacterial activity against Citrobacter freundii ATCC 43864 after 18 hrs by agar dilution method
Assay type: functional
Stated conditions: ATCC 43864, 18 h
Endpoint name: MIC

Enquiry: What measured MIC goes with CNC(=N)NCCC/C=C/CCC[C@H](C)C[C@H](C)[C@H]1OC(=O)[C@H](C)[C@H](O)/C=C/[C@H](C)[C@H](O)C[C@H](O)[C@H](C)[C@@H](O)CC[C@H](C)[C@H](O)C[C@]2(O)O[C@H](C[C@@H](OC(=O)CC(=O)O)C[C@H](O)C[C@@H](O)[C@H](C)[C@H](O)/C=C/C=C/[C@@H]1C)C[C@H](OC(=O)CC(=O)O)[C@H]2O ?
Return: > 64 µg/mL

Enquiry: What measured MIC goes with CNC(=N)NCCC/C=C/CCC[C@H](C)C[C@H](C)[C@H]1OC(=O)[C@H](C)[C@H](O)/C=C/[C@H](C)[C@H](O)C[C@H](O)[C@H](C)[C@@H](O)CC[C@H](C)[C@H](OC(=O)CC(=O)O)C[C@]2(O)O[C@H](C[C@@H](OC(=O)CC(=O)O)C[C@H](O)C[C@@H](O)[C@H](C)[C@H](O)/C=C/C=C/[C@@H]1C)C[C@H](O)[C@H]2O ?
Return: > 64 µg/mL

Enquiry: What measured MIC goes with CNC(=N)NCCC/C=C/CCC[C@H](C)C[C@H](C)[C@@H](O)[C@@H](C)/C=C/C=C/[C@@H](O)[C@@H](C)[C@H](O)C[C@@H](O)C[C@H](O)C[C@@H](O)C[C@H](O)[C@@H](O)C(O)C[C@@H](O)[C@@H](C)CC[C@H](O)[C@@H](C)[C@@H](O)C[C@@H](O)[C@@H](C)/C=C/[C@@H](O)[C@@H](C)C(=O)O (stereo partly drawn) ?
Return: > 64 µg/mL

====

Exercise: state measured MIC for each of the molecules provided.
System: Escherichia coli
Protocol description: Antibacterial activity against extended-spectrum beta-lactamase-positive Escherichia coli 12-15 after 18 hrs by agar dilution method
Format: functional
Stated conditions: 12-15, 18 h

Enquiry: What MIC appears in the records for this molecule with Escherichia coli? CNC(=N)NCCC/C=C/CCC[C@H](C)C[C@H](C)[C@H]1OC(=O)[C@H](C)[C@H](O)/C=C/[C@H](C)[C@H](O)C[C@H](O)[C@H](C)[C@@H](O)CC[C@H](C)[C@H](O)C[C@]2(OC)O[C@H](C[C@@H](OC(=O)CC(=O)O)C[C@H](O)C[C@@H](O)[C@H](C)[C@H](O)/C=C/C=C/[C@@H]1C)C[C@H](O)[C@H]2O
Return: > 64 µg/mL

Enquiry: What MIC appears in the records for this molecule with Escherichia coli? CNC(=N)NCCC/C=C/CCC[C@H](C)C[C@H](C)[C@H]1OC(=O)[C@H](C)[C@H](O)/C=C/[C@H](C)[C@H](O)C[C@H](O)[C@H](C)[C@@H](O)CC[C@H](C)[C@H](O)CC(O)[C@H](O)[C@@H](O)C[C@H](O)C[C@@H](O)C[C@H](O)C[C@@H](O)[C@H](C)[C@H](O)/C=C/C=C/[C@@H]1C (stereo partly drawn)
Return: > 64 µg/mL

Enquiry: What MIC appears in the records for this molecule with Escherichia coli? CNC(=N)NCCC/C=C/CCC[C@H](C)C[C@H](C)[C@@H](O)[C@@H](C)/C=C/C=C/[C@@H](O)[C@@H](C)[C@H](O)C[C@@H](O)C[C@H](O)C[C@@H](O)C[C@H](O)[C@@H](O)C(O)C[C@@H](O)[C@@H](C)CC[C@H](O)[C@@H](C)[C@@H](O)C[C@@H](O)[C@@H](C)/C=C/[C@@H](O)[C@@H](C)C(=O)O (stereo partly drawn)
Return: > 64 µg/mL

====

Exercise: state measured MIC for each of the molecules provided.
System: Morganella morganii
Protocol description: Antibacterial activity against Morganella morganii ATCC 25830 after 18 hrs by agar dilution method
Type: functional
Stated conditions: ATCC 25830, 18 h

Enquiry: What measured MIC goes with CNC(=N)NCCC/C=C/CCC[C@H](C)C[C@H](C)[C@H]1OC(=O)[C@H](C)[C@H](O)/C=C/[C@H](C)[C@H](O)C[C@H](O)[C@H](C)[C@@H](O)CC[C@H](C)[C@H](O)C[C@]2(O)O[C@H](C[C@@H](O)C[C@H](OC(=O)CC(=O)O)C[C@@H](O)[C@H](C)[C@H](O)/C=C/C=C/[C@@H]1C)C[C@H](OC(=O)CC(=O)O)[C@H]2O ?
Return: > 64 µg/mL

Enquiry: What measured MIC goes with CNC(=N)NCCC/C=C/CCC[C@H](C)C[C@H](C)[C@H]1OC(=O)[C@H](C)[C@H](O)/C=C/[C@H](C)[C@H](O)C[C@H](O)[C@H](C)[C@@H](O)CC[C@H](C)[C@H](O)C[C@]2(O)O[C@H](C[C@@H](OC(=O)CC(=O)O)C[C@H](O)C[C@@H](O)[C@H](C)[C@H](O)/C=C/C=C/[C@@H]1C)C[C@H](OC(=O)CC(=O)O)[C@H]2O ?
Return: > 64 µg/mL

====

Test system: Morganella morganii
Protocol description: Antibacterial activity against Morganella morganii ATCC 25830 after 18 hrs by agar dilution method
Type: functional
Stated conditions: ATCC 25830, 18 h
Exercise: state measured MIC for each of the molecules provided.

Enquiry: What measured MIC goes with CNC(=N)NCCC/C=C/CCC[C@H](C)C[C@H](C)[C@H]1OC(=O)[C@H](C)[C@H](O)/C=C/[C@H](C)[C@H](O)C[C@H](O)[C@H](C)[C@@H](O)CC[C@H](C)[C@H](O)CC(O)[C@H](O)[C@@H](O)C[C@H](O)C[C@@H](O)C[C@H](O)C[C@@H](O)[C@H](C)[C@H](O)/C=C/C=C/[C@@H]1C (stereo partly drawn) ?
Return: > 64 µg/mL

Enquiry: What measured MIC goes with CNC(=N)NCCC/C=C/CCC[C@H](C)C[C@H](C)[C@@H](O)[C@@H](C)/C=C/C=C/[C@@H](O)[C@@H](C)[C@H](O)C[C@@H](O)C[C@H](O)C[C@@H](O)C[C@H](O)[C@@H](O)C(O)C[C@@H](O)[C@@H](C)CC[C@H](O)[C@@H](C)[C@@H](O)C[C@@H](O)[C@@H](C)/C=C/[C@@H](O)[C@@H](C)C(=O)O (stereo partly drawn) ?
Return: > 64 µg/mL

Enquiry: What measured MIC goes with CNC(=N)NCCC/C=C/CCC[C@H](C)C[C@H](C)[C@H]1OC(=O)[C@H](C)[C@H](O)/C=C/[C@H](C)[C@H](O)C[C@H](O)[C@H](C)[C@@H](O)CC[C@H](C)[C@H](O)C[C@]2(O)O[C@H](C[C@@H](O)C[C@H](OC(=O)CC(=O)O)C[C@@H](O)[C@H](C)[C@H](O)/C=C/C=C/[C@@H]1C)C[C@H](O)[C@H]2O ?
Return: > 64 µg/mL
